TARGET UNDER TEST: EmrE (EmrE-Myc-His6; His6-myc-EmrE) (Escherichia coli)
Construct: plasmid pTZEmrEmH6; E. coli C43(DE3); dimer considered minimal functional unit
PROTOCOL TEXT: biochemical
Format: binding
PROTOCOL CONDITIONS: read-out: Kd

{"COMPOUND": "C[n+]1ccc(-c2cc[n+](C)cc2)cc1 [MV, Methyl Viologen]", "READOUT UNIT": "µM", "Kd": 179}
{"COMPOUND": "c1ccc([P+](c2ccccc2)(c2ccccc2)c2ccccc2)cc1 [TPP, Tetraphenylphosphonium chloride]", "READOUT UNIT": "µM", "Kd": 5}
{"COMPOUND": "CCCCCCCCCCCCCCCC[N+](C)(C)Cc1ccccc1 [CTC]", "READOUT UNIT": "µM", "Kd": 407}

----------
TARGET UNDER TEST: EmrE (EmrE-Myc-His6; His6-myc-EmrE) (Escherichia coli, UniProt P23895)
Construct: plasmid pTZEmrEmH6; E. coli C43(DE3); dimer considered minimal functional unit
Sequence (P23895 whole entry): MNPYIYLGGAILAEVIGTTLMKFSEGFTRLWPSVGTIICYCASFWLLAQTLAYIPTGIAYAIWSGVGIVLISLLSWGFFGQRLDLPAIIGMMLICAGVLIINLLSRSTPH
PROTOCOL TEXT: biochemical
Assay type: binding
Measured Kd by item
MEASURED ENDPOINT: Kd

{"MOLECULE": "CCN=c1cc2oc3cc(NCC)c(C)cc3c(-c3ccccc3C(=O)OCC)c-2cc1C [RH, Rhodamine 6 G]", "EXPERIMENTAL RESULT": "12 µM"}
{"MOLECULE": "CN(C)c1ccc(C(=C2C=CC(=[N+](C)C)C=C2)c2ccc(N(C)C)cc2)cc1 [CV, Crystal Violet]", "EXPERIMENTAL RESULT": "16 µM"}
{"MOLECULE": "CC[n+]1c(-c2ccccc2)c2cc(N)ccc2c2ccc(N)cc21 [EB, Ethidium bromide]", "EXPERIMENTAL RESULT": "1 µM"}
{"MOLECULE": "Cc1cc(N)c2ccccc2[n+]1CCCCCCCCCC[n+]1c(C)cc(N)c2ccccc21 [DC, Dequalinium chloride]", "EXPERIMENTAL RESULT": "11 µM"}
{"MOLECULE": "Nc1ccc2cc3ccc(N)cc3nc2c1 [PRO, Proflavine]", "EXPERIMENTAL RESULT": "14 µM"}
